Molecular target: hMPV A1 F monomer (human metapneumovirus)
Experiment: ELISA on coated recombinant protein, OD 405 nm
quantityName: EC50 (µg/mL)

- MPV86 (antibody, V domains shown) VH: QVQLVQSGAEVKKPGSSVKVSCKASGDTFNDVALSWVRQAPGQGLEWLGGIIPFFGTANYAQRFQDRVTITADASTSTAYLELGGLRSEDTAVYYCARGWSCRNITCFMMGYYFYIMDVWGQGTLVTVSS VL: LSLSPGERATLSCRASQSVGNFLAWYQQKPGQTPRLLIQDASNRATGIPARFSGTGSGTDFTLTISSLEPEDFAVYYCQQRSNWPPTFGPGTKVDIK: 0.18
- MPV489 (antibody, V domains shown) VH: EVQLLESGGGLVQPGGSLRLSCAASKFTFNNYEMNWLRQAPGKGLEWVSSISSSGDTIHNADSVKGRFIISRDNAKNSLHLQMNGLRAEDTAVYYCARAGSGWAYDAFDIWGLGTMVTVSS VL: LSASVGDRVTITCRASQSISSFLNWYQQKPGKAPKLLMYAASSLPVGVPSRFSGSGSGPEYTLTISNLQPEDFATYYCQQGYSSPPTFGGGTRLEVK: 7
- MPV486 (antibody, V domains shown) VH: EVQLVESGGHLVQSGGSLRLSCAASGFTFSNYILNWVRQAPGKGLEWISYITGGSSAIYYADSVKGRFTISRDDAKNSLYLQMNNLRAEDTAVYYCARSHGYDSSGYYYYFAMDVWGQGTTVTVSS VL: QSVLTQPPSASGTPGQRVTISCSGSNSNIESNTVNWYQQIPGTAPKLLIYSDNRRPSGVPDRFSGSKSGTSASLAISGLQSEDEADYYCAAWDDSLIGYVFGTGTKVTV: 0.088
